Let's go through some recorded pEC50 values for D(2) dopamine receptor (Homo sapiens) together.
pEC50: −log10 of the molar value.
Readout Label: pEC50

# Smiles Code, Assay System, Reading Qualifier, Reported Result
data = [
    ("CC(=O)Oc1c(Br)cc2c(c1OC(C)=O)-c1cccc3c1[C@@H](C2)N(C)CC3", "D(2) dopamine receptor (Homo sapiens)", "=", 5.85),
    ("CC(=O)Oc1c(Cl)cc2c(c1OC(C)=O)-c1cccc3c1[C@@H](C2)N(C)CC3", "D(2) dopamine receptor (Homo sapiens)", "=", 6.22),
    ("CN1CCc2cccc3c2[C@H]1Cc1ccc2c(c1-3)OCO2", "D(2) dopamine receptor (Homo sapiens)", "=", 6.99),
    ("CC(=O)Oc1c(C(C)C)cc2c(c1OC(C)=O)-c1cccc3c1[C@@H](C2)N(C)CC3", "D(2) dopamine receptor (Homo sapiens)", "<", 5.00),
]
